- STUDY_TARGET: CDK2/Cyclin E1 (Homo sapiens, UniProt P24941)
- ASSAY_DETAILS: CDK2/Cyclin E1 Biochemical Assay (TR-FRET), 1 mM ATP
- TEST_SETTINGS: 0.15 μM Rb (Ser780)-biotin substrate, pH7.0, 60 min preincubation, 90 min reaction, room temperature
# key: entry, value: IC50
Value expressed in nM; do not type the unit.

Recorded IC50, per entry:
# query: IC50 of entry CN1c2ccc(Nc3cc([C@@H]4CC[C@H](OC(=O)NC56CC(C5)C6)C4)[nH]n3)c(F)c2CS1(=O)=O (relative stereo)
0.5

# query: IC50 of entry CC(C)(CO)NC(=O)O[C@H]1CC[C@@H](c2cc(Nc3ccc4c(c3F)CS(=O)(=O)N4C3CC3)n[nH]2)C1 (single isomer, unassigned) [Example 363a]
2.2

Now consider the entry below.
# query: IC50 of entry CC(C)(CO)NC(=O)O[C@H]1CC[C@@H](c2cc(Nc3cc4c(cc3F)S(=O)(=O)NC4)n[nH]2)C1 (relative stereo)
16

* * *

- STUDY_TARGET: CDK2/Cyclin E1 (Homo sapiens)
- ASSAY_DETAILS: CDK2/Cyclin E1 Biochemical Assay (TR-FRET), 0.060 mM ATP
- TEST_SETTINGS: 0.15 μM Rb (Ser780)-biotin substrate, pH7.0, 60 min preincubation, 120 min reaction, room temperature
# key: entry, value: IC50
Value expressed in nM; do not type the unit.

# query: IC50 of entry O=C(NCCC(F)(F)F)O[C@@H]1CC[C@H](c2cc(Nc3ccc4c(c3)CS(=O)(=O)N4)n[nH]2)C1 (relative stereo) [Example 198]
18

# query: IC50 of entry CC(C)NC(=O)O[C@H]1CC[C@@H](c2cc(Nc3ccc4c(c3)C(C)NS4(=O)=O)n[nH]2)C1 (single isomer, unassigned) [Example 321d]
0.6

# query: IC50 of entry CC[C@H](C)NC(=O)O[C@H]1CC[C@@H](c2cc(Nc3ccc4c(c3F)CS(=O)(=O)N4CC(F)(F)F)n[nH]2)C1 (single isomer, unassigned) [Example 265b]
2.4

---
# query: IC50 of entry [2H]C([2H])([2H])N1c2ccc(Nc3cc([C@@H]4CC[C@H](OC(=O)NCCC)C4)[nH]n3)c(F)c2CS1(=O)=O (single isomer, unassigned) [Example 268a]
14

# query: IC50 of entry CN1Cc2c(ccc(Nc3cc([C@@H]4CC[C@H](OC(=O)NC5CCC(O)CC5)C4)[nH]n3)c2F)S1(=O)=O (single isomer, unassigned) [Example 167]
9.2

# query: IC50 of entry CC(C)NC(=O)O[C@H]1CC[C@@H](c2cc(Nc3ccc4c(c3)C(C)(C)NS4(=O)=O)n[nH]2)C1 (relative stereo) [Example 6]
6.5

* * *

# key: entry, value: IC50
- STUDY_TARGET: CDK2/Cyclin E1 (Homo sapiens, UniProt P24941)
- ASSAY_DETAILS: CDK2/Cyclin E1 Biochemical Assay (TR-FRET), 0.060 mM ATP
- TEST_SETTINGS: 0.15 μM Rb (Ser780)-biotin substrate, pH7.0, 60 min preincubation, 120 min reaction, room temperature
- Experimental: CDK2/Cyclin E1 and CDK1/Cyclin B1 Biochemical Assays Compounds disclosed herein were tested for inhibition of CDK2/Cyclin E1 or CDK1/Cyclin B1 kinase in an assay based on the time-resolved fluorescence-resonance energy transfer (TR-FRET) methodology. […] Plates were incubated at room temperature for 60 minutes, and the TR-FRET signals (ex337 nm, em665 nm/620 nm) were recorded on a PHERAstar FSX plate reader (BMG Labtech). […]
Value expressed in nM; do not type the unit.

Recorded IC50, per entry:
# query: IC50 of entry CC(C)NC(=O)O[C@H]1CC[C@@H](c2cc(Nc3ccc4c(c3F)S(=O)(=O)NC4(C)C)n[nH]2)C1 (relative stereo)
21

# query: IC50 of entry CC1NS(=O)(=O)c2ccc(Nc3cc([C@@H]4CC[C@H](OC(=O)NC5(C)CC5)C4)[nH]n3)cc21 (single isomer, unassigned) [Example 322c]
1.3

# query: IC50 of entry CC(C)NC(=O)O[C@H]1CC[C@@H](c2cc(Nc3ccc4c(c3)S(=O)(=O)NC4)n[nH]2)C1 (relative stereo)
1.2

# query: IC50 of entry CN1c2ccc(Nc3cc([C@@H]4CC[C@H](OC(=O)NC(C)(C)C)C4)[nH]n3)cc2CS1(=O)=O [Example 391b]
0.9

# query: IC50 of entry C[C@@H](CO)NC(=O)O[C@H]1CC[C@@H](c2cc(Nc3ccc4c(c3)CS(=O)(=O)N4C)n[nH]2)C1 (relative stereo)
3.3

---
# query: IC50 of entry O=C(NC1CC2(CC2)C1)O[C@H]1CC[C@@H](c2cc(Nc3ccc4c(c3F)CNS4(=O)=O)n[nH]2)C1 (relative stereo)
105

# query: IC50 of entry CC(C)NC(=O)O[C@H]1CC[C@@H](c2cc(Nc3ccc4c(c3F)CS(=O)(=O)N4C)n[nH]2)C1 (single isomer, unassigned) [Example 255b]
5.2

# query: IC50 of entry CN1c2ccc(Nc3cc([C@@H]4CC[C@H](OC(=O)NC56CC(C5)C6)C4)[nH]n3)cc2CS1(=O)=O (relative stereo)
1.5

# query: IC50 of entry C[C@H]1[C@H](O)CN1C(=O)O[C@H]1CC[C@@H](c2cc(Nc3ccc4c(c3F)CN(C)S4(=O)=O)n[nH]2)C1 (relative stereo)
23

# query: IC50 of entry CCCNC(=O)O[C@H]1CC[C@@H](c2cc(Nc3ccc4c(c3F)CS(=O)(=O)N4C)n[nH]2)C1 (single isomer, unassigned) [Example 256b]
4

# query: IC50 of entry CC1(NC(=O)O[C@H]2CC[C@@H](c3cc(Nc4ccc5c(c4F)CN(C4CC4)S5(=O)=O)n[nH]3)C2)CCOC1 (relative stereo)
2.6

# query: IC50 of entry CC(C)NC(=O)O[C@H]1CC[C@@H](c2cc(Nc3cc4c(cc3F)S(=O)(=O)N(C(C)C)C4)n[nH]2)C1 (relative stereo)
758

# query: IC50 of entry CCCNC(=O)O[C@H]1CC[C@@H](c2cc(Nc3ccc4c(c3F)CN(C3CC3)S4(=O)=O)n[nH]2)C1 (racemic) [Example 118]
3.1

# query: IC50 of entry CC1(NC(=O)O[C@H]2CC[C@@H](c3cc(Nc4ccc5c(c4F)CS(=O)(=O)N5CC(F)(F)F)n[nH]3)C2)COC1 (relative stereo)
5.8

# query: IC50 of entry CN1c2ccc(Nc3cc([C@@H]4CC[C@H](OC(=O)NC5(C)COC5)C4)[nH]n3)c(F)c2CS1(=O)=O (single isomer, unassigned) [Example 332a]
1.9

# query: IC50 of entry CCCNC(=O)O[C@@H]1CC[C@H](c2cc(Nc3ccc4c(c3F)CNS4(=O)=O)n[nH]2)C1 (single isomer, unassigned) [Example 138a]
2.6

# query: IC50 of entry CC(C)NC(=O)O[C@@H]1CC[C@H](c2cc(Nc3ccc4c(c3)CS(=O)(=O)N4)n[nH]2)C1 (single isomer, unassigned)
0.9

Source listed as patent US20260297080A1.
